assay: Metabolic stability test: liver microsomal stability assay; type: in vitro ADME, mouse; conditions: mouse liver microsomes 0.5 mg protein/mL, compound 1 µM, absence of NADPH
Positions of bridges follow the written chain, without caps; N, C: chain ends. Non-standard residues stand in square brackets, D forms with d. Residues, ends and D or L forms follow the SMILES beside them. *: point of attachment. NMeF = CN[C@@H](Cc1ccccc1)C(=O)O; NMeT = CN[C@H](C(=O)O)[C@@H](C)O; NMeL = CN[C@@H](CC(C)C)C(=O)O; NMeV = CN[C@H](C(=O)O)C(C)C; NMeA = CN[C@@H](C)C(=O)O; Piperidide = C1CCN(*)CC1; Abu = CC[C@H](N)C(=O)O; Sar = CNCC(=O)O
endpoint_label: Mouse Hepatic Microsome CLh,int NADPH(-) (µL/min/mg Protein)
Respond numerically; units are µL/min/mg Protein and should not be typed.

Find the recorded Mouse Hepatic Microsome CLh,int NADPH(-) belonging to CC[C@@H]1NC(=O)[C@H](Cc2ccccc2)N(C)C(=O)[C@H](CC(C)C)NC(=O)CNC(=O)[C@H]([C@@H](C)O)N(C)C(=O)[C@H](CC(C)C)N(C)C(=O)[C@H]([C@@H](C)CC)NC(=O)[C@H](Cc2ccccc2)N(C)C(=O)CN(C)C(=O)C[C@@H](C(=O)N2CCCCC2)NC(=O)[C@H](C(C)C)N(C)C(=O)[C@H](CC(C)C)NC(=O)[C@H](C)N(C)C1=O [pd105] ([Sar][NMeF]I[NMeL][NMeT]GL[NMeF][Abu][NMeA]L[NMeV]D-Piperidide; lactam N-13) and report it. 22.7
